Sourced from patent US20060068468A1

Target: T1, Activin A (UniProt P08476 311-426)
T1 construct: also called ActA
T1 sequence (looked up): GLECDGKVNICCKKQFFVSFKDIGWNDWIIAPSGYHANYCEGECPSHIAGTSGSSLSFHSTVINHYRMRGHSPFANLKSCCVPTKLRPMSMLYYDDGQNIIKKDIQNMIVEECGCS
Assay: BiaCore, ligand immobilized on CM5 chip
measured.endpoint: binding result

{"columns": ["binder", "result"],
 "data": [
  ["ActRIIB-Fc D80M (Fc fusion, Mutation in the background ActRIIB-Fc) SGRGEAETRECIYYNANWELERTNQSGLERCEGEQDKRLHCYASWANSSGTIELVKKGCWLMDFNCYDRQECVATEENPQVYFCCCEGNFCNERFTHLPEAGGGTHTCPPCPAPELLGGPSVFLFPPKPKDTLMISRTPEVTCVVVDVSHEDPEVKFNWYVDGVEVHNAKTKPREEQYNSTYRVVSVLTVLHQDWLNGKEYKCKVSNKALPVPIEKTISKAKGQPREPQVYTLPPSREEMTKNQVSLTCLVKGFYPSDIAVEWESNGQPENNYKTTPPVLDSDGSFFLYSKLTVDKSRWQQGNVFSCSVMHEALHNHYTQKSLSLSPGK", "no binding"],
  ["ActRIIB-Fc K74I (Fc fusion, Mutation in the background ActRIIB-Fc) SGRGEAETRECIYYNANWELERTNQSGLERCEGEQDKRLHCYASWANSSGTIELVIKGCWLDDFNCYDRQECVATEENPQVYFCCCEGNFCNERFTHLPEAGGGTHTCPPCPAPELLGGPSVFLFPPKPKDTLMISRTPEVTCVVVDVSHEDPEVKFNWYVDGVEVHNAKTKPREEQYNSTYRVVSVLTVLHQDWLNGKEYKCKVSNKALPVPIEKTISKAKGQPREPQVYTLPPSREEMTKNQVSLTCLVKGFYPSDIAVEWESNGQPENNYKTTPPVLDSDGSFFLYSKLTVDKSRWQQGNVFSCSVMHEALHNHYTQKSLSLSPGK", "no binding"]
]}
